Property: Inhibition zone; scope: individual compounds
System: Micrococcus luteus ATCC9341
Experiment: Paper disc assay, Micrococcus luteus
Format: cell-based
Details: column 1; 1 mg/6 mm disc
property_name: Inhibition zone (mm)

compound	readout_units	measured_value
CC[C@H]1OC(=O)C[C@@H](O)[C@H](C)[C@@H](O[C@@H]2OC(C)[C@@H](O)C(N(C)C)C2O)[C@@H](CCn2cc(-c3ccccn3)nn2)C[C@@H](C)C(=O)/C=C/C(C)=C/[C@@H]1CO[C@@H]1OC(C)[C@@H](O)C(OC)C1OC (stereo partly drawn) [YT12]	mm	18.5
CC[C@H]1OC(=O)C[C@@H](O)[C@H](C)[C@@H](O[C@@H]2O[C@H](C)[C@@H](O)[C@H](N(C)C)[C@H]2O)[C@@H](CCn2cc(-c3ccsc3)nn2)C[C@@H](C)C(=O)/C=C/C(C)=C/[C@@H]1CO[C@@H]1O[C@H](C)[C@@H](O)[C@@H](OC)[C@H]1OC [YT14]	mm	20.5
CC[C@H]1OC(=O)C[C@@H](O)[C@H](C)[C@@H](O[C@@H]2O[C@H](C)[C@@H](O)[C@H](N(C)C)[C@H]2O)[C@@H](CCN2C[C@H](C)C[C@H](C)C2)C[C@@H](C)C(=O)/C=C/C(C)=C/[C@@H]1CO[C@@H]1O[C@H](C)[C@@H](O)[C@@H](OC)[C@H]1OC [Tilmicosin, tilmicosin, reference compound]	mm	19
CC[C@H]1OC(=O)C[C@@H](O)[C@H](C)[C@@H](O[C@@H]2OC(C)[C@@H](O)C(N(C)C)C2O)[C@@H](CCn2cc(-c3ccc(N(C)C)cc3)nn2)C[C@@H](C)C(=O)/C=C/C(C)=C/[C@@H]1CO[C@@H]1OC(C)[C@@H](O)C(OC)C1OC (stereo partly drawn) [YT29]	mm	19.5
CC[C@H]1OC(=O)C[C@@H](O)[C@H](C)[C@@H](O[C@@H]2OC(C)[C@@H](O)C(N(C)C)C2O)[C@@H](CCn2cc(-c3ccccc3)nn2)C[C@@H](C)C(=O)/C=C/C(C)=C/[C@@H]1CO[C@@H]1OC(C)[C@@H](O)C(OC)C1OC (stereo partly drawn) [YT13]	mm	21.5
CC[C@H]1OC(=O)C[C@@H](O)[C@H](C)[C@@H](O[C@@H]2OC(C)[C@@H](O)C(N(C)C)C2O)[C@@H](CCn2cc(CCCCCl)nn2)C[C@@H](C)C(=O)/C=C/C(C)=C/[C@@H]1CO[C@@H]1OC(C)[C@@H](O)C(OC)C1OC (stereo partly drawn) [YT19]	mm	19
